tested on: NK-92 (IL-2 2.5 ng/mL); assay: relative IC50 (inflection point of fitted viability curve, relative to fitted max inhibition); higher = less sensitive; details: 72 h
Measurement type: relative IC50

| Compound | Result |
| --- | --- |
| Clc1ccc(C(c2ccccc2Cl)C(Cl)Cl)cc1 (stereo not drawn) | > 10000 nM |

Request the reported relative IC50 associated with CCCS(=O)(=O)Nc1ccc(F)c(C(=O)c2c[nH]c3ncc(-c4ccc(Cl)cc4)cc23)c1F
1610 nM

Request the reported relative IC50 associated with FC(F)c1nc2ccccc2n1-c1nc(N2CCOCC2)nc(N2CCOCC2)n1
31.2 nM
